compounds and their reported Emax
Target: human OX2R (Homo sapiens (Human), UniProt O43614)
Sequence (O43614 whole entry): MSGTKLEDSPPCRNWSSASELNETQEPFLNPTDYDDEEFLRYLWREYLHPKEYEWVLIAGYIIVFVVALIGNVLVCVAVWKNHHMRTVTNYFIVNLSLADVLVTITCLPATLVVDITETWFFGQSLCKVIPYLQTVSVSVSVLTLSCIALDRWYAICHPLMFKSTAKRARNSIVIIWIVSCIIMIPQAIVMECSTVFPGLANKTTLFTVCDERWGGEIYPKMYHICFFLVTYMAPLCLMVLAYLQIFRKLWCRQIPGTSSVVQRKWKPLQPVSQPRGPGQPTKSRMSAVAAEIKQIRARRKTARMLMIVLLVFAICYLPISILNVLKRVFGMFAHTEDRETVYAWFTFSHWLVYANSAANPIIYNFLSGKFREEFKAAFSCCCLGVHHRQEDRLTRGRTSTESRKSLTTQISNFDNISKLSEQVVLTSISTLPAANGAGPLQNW
Experiment: IPOne (IP-One, Cisbio) orexin receptor agonist assay in CHO cells expressing human OX2R
Settings: CHO, hOX2R_IP; percentage of mean max effect of a reference compound at 1 uM (100% activity vs Orexin A)

Task: Using known records, supply Emax for COC(=O)N1[C@H](C)C[C@H](NS(=O)(=O)N(C)C)[C@@H]1CO[C@@H]1CC[C@H](c2ccccc2)CC1F (stereo partly shown) [Example 30]
Result: 100%

Further cases:
Task: Using known records, supply Emax for CCNC(=O)N1[C@H](C)C[C@H](NS(C)(=O)=O)[C@@H]1COC1CCC(C(F)(F)F)CC1 (stereo partly shown) [Example 2]
Result: 100%

Task: Using known records, supply Emax for COC(=O)N1[C@H](C)C[C@H](NS(=O)(=O)N(C)C)[C@@H]1COC1CCC(C(F)(F)F)CC1 (stereo partly shown) [Example 11]
Result: 99%

Task: Using known records, supply Emax for CCOC(=O)N1[C@H](C)C[C@H](NS(=O)(=O)N(C)C)[C@@H]1COC1CCC(C(C)C)CC1 (stereo partly shown) [Example 8]
Result: 101%
